Each record here notes measured efficacy.
Test system: MTT (mouse pheochromocytoma)
protocol details: efficacy (maximal response) relative to doxorubicin = -100% and DMSO = 0%; higher = less inhibition of viability
test settings: (24 or 48 h)
Where a name gives a salt, the structure may show the parent alone.
assay endpoint: efficacy (%)

compound="Sc1ncnc2[nH]cnc12 [6-Mercaptopurine monohydrate]" assay_result=-78.1
compound="OCCN1CCN(CC/C=C2/c3ccccc3Sc3ccc(C(F)(F)F)cc32)CC1 [cis-(Z)-FLUPENTHIXOL]" assay_result=-85.6
compound="CC(=O)O[C@H]1C(=O)[C@@]2(C)[C@H]([C@H](OC(=O)c3ccccc3)[C@]3(O)CC(OC(=O)C(O)C(NC(=O)c4ccccc4)c4ccccc4)C(C)=C1C3(C)C)[C@]1(OC(C)=O)CO[C@@H]1C[C@@H]2O (stereo not given in full)" assay_result=-50.9
compound=O=[N+]([O-])c1ccc(O)c2ncccc12 assay_result=-85.8
compound="Nc1ccc2cc3ccc(N)cc3nc2c1 [PROFLAVINE HEMISULFATE]" assay_result=-91.5
compound="Cl.CC(C)(C)[C@]1(O)CC[N@@]2C[C@H]3C4=C(CCC5=CC=CC(=C35)[C@@H]2C1)C=CC=C4 [(?)-Butaclamol hydrochloride]" assay_result=-70.8
compound="Nc1ncn(C2C[C@H](O)[C@@H](CO)O2)c(=O)n1 (stereo not given in full)" assay_result=-51.6
compound=C[C@]12O[C@H](C[C@]1(O)CO)n1c3ccccc3c3c4c(c5c6ccccc6n2c5c31)CNC4=O assay_result=-83.2
compound="CCCCCCCCCCCCCCCC[N+](C)(C)CC [Mecetronium ethylsulfate]" assay_result=-78.5
compound=CCCOc1ccc2[nH]c(NC(=O)OC)nc2c1 assay_result=-39
compound="CC[NH+](CC)CCCN(c1ccccc1)C1Cc2ccccc2C1 [APRINDINE HYDROCHLORIDE]" assay_result=-107
compound="CCOc1ccc(Cc2nccc3cc(OCC)c(OCC)cc23)cc1OCC [Ethaverine hydrochloride]" assay_result=-60
compound="CCCCCCCCCCCCCCCC[n+]1ccccc1 [Cetylpyridinium bromide]" assay_result=-96.5
compound="CCCCC(=O)OCC(=O)[C@]1(O)Cc2c(O)c3c(c(O)c2[C@H](OC2CC(NC(=O)C(F)(F)F)C(O)C(C)O2)C1)C(=O)c1c(OC)cccc1C3=O (stereo not given in full)" assay_result=-78
compound=Oc1cc[c]([Hg][Cl])cc1 assay_result=-97.8
compound="NNCCc1ccccc1 [Phenelzine sulfate]" assay_result=-52.6
compound=Cc1c(C(=O)O)c(O)cc2c1C(=O)c1c(O)c([C@H]3O[C@H](CO)[C@@H](O)[C@H](O)[C@H]3O)c(O)c(O)c1C2=O assay_result=-45.4
compound=COc1cc(/C=C/C(=O)CC(=O)/C=C/c2ccc(O)c(OC)c2)ccc1O assay_result=-79.7
compound="CC1=CC(=CC=C1N)C(\\C2=CC=C(N)C=C2)=C3/C=CC(=N)C=C3 [C.I. Basic Violet 14, free base]" assay_result=-47.4
compound="Cc1cc(/C=C\\c2ccc3cc(N(C)C)ccc3[n+]2C)c(C)n1-c1ccccc1.Cc1cc(/C=C\\c2ccc3cc(N(C)C)ccc3[n+]2C)c(C)n1-c1ccccc1.O=C([O-])c1cc2ccccc2c(Cc2c(O)c(C(=O)[O-])cc3ccccc23)c1O [Pyrvinium pamoate]" assay_result=-33.3
compound="CC[C@@]1(O)C[C@H](O[C@H]2C[C@@H](N(C)C)[C@@H](O[C@H]3C[C@@H](O)[C@@H](O[C@H]4CCC(=O)[C@@H](C)O4)[C@@H](C)O3)[C@@H](C)O2)c2c(cc3c(c2O)C(=O)c2c(O)cccc2C3=O)[C@H]1C(=O)OC [ACLARUBICIN HYDROCHLORIDE]" assay_result=-41.5
compound=O=S(=O)([O-])c1ccc2c(/N=N/c3ccc(S(=O)(=O)[O-])c4ccccc34)c(O)c(S(=O)(=O)[O-])cc2c1 assay_result=-95.8
compound=COc1cc2c(Nc3ccc(Br)cc3F)ncnc2cc1OCC1CCN(C)CC1 assay_result=-102
compound="[H]/N=C(/c1ccc(OCCCCCC)c2ccccc12)N(CCCC)CCCC [BUNAMIDINE HYDROCHLORIDE]" assay_result=-96.3
compound=CCN(CC)C1=CC=C(C=C1)C(\C2=CC=CC=C2)=C3\C=C/C(/C=C3)=[N+](\CC)CC assay_result=-108
